The reported measurements were obtained from patent US20190225692A1.

target: T1, HLA-A2/E7 (11-19) tetramer (human; HPV 16); experiment: tetramer flow cytometry; transfected 1:1 CD4+ and CD4+/CD8+ Jurkat-derived cells;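 note: cells transiently transfected with TCR plasmids, stained 48 h later with HLA-A*02:01 peptide-MHC tetramer plus anti-CD8 antibody, read by flow cytometry to assess CD8-independent tetramer binding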
T1 construct: also called E7(11-19) peptide-MHC tetramer; E7 (11-19)-loaded tetramer
measurementType: % cells in E7 tet-/CD8+ quadrant (%)
Record the value in %, omitting the unit from your answer.

Task: So what's the measured % cells in E7 tet-/CD8+ quadrant for this one? TCR 32 (codon optimized, cysteine modified version) (TCR, V domains shown) V domain 1: TQLLEQSPQFLSIQEGENLTVYCNSSSVFSSLQWYRQEPGEGPVLLVTVVTGGEVKKLKRLTFQFGDARKDSSLHITAAQPGDTGLYLCAGGSNYKLTFGKGTLLTVNP V domain 2: DSGVTQTPKHLITATGQRVTLRCSPRSGDLSVYWYQQSLDQGLQFLIQYYNGEERAKGNILERFSAQQFPDLHSELNLSSLELGDSALYFCASSVGGDHSDEQFFGPGTRLTVLE
Result: 7.53

Task: Please give the result for TCR 36 (codon optimized, cysteine modified version) (TCR, V domains shown) V domain 1: RKEVEQDPGPFNVPEGATVAFNCTYSNSASQSFFWYRQDCRKEPKLLMSVYSSGNEDGRFTAQLNRASQYISLLIRDSKLSDSATYLCVVNRDNYGQNFVFGPGTRLSVLP V domain 2: EPEVTQTPSHQVTQMGQEVILRCVPISNHLYFYWYRQILGQKVEFLVSFYNNEISEKSEIFDDQFSVERPDGSNFTLKIRSTKLEDSAMYFCAMTGRSNYEQYFGPGTRLTVTE too.
Result: 25.4

Task: Please give the result for TCR 31 (codon optimized, cysteine modified version) (TCR, V domains shown) V domain 1: DQQVKQNSPSLSVQEGRISILNCDYTNSMFDYFLWYKKYPAEGPTFLISISSIKDKNEDGRFTVFLNKSAKHLSLHIVPSQPGDSAVYFCAASERGTYKYIFGTGTRLKVLA V domain 2: GAGVSQSPSNKVTEKGKDVELRCDPISGHTALYWYRQSLGQGLEFLIYFQGNSAPDKSGLPSDRFSAERTGGSVSTLTIQRTQQEDSAVYLCASSRFLGSTDTQYFGPGTRLTVLE too.
Result: 21.1

Task: Please give the result for TCR 37 (codon optimized, cysteine modified version) (TCR, V domains shown) V domain 1: ELKVEQNPLFLSMQEGKNYTIYCNYSTTSDRLYWYRQDPGKSLESLFVLLSNGAVKQEGRLMASLDTKARLSTLHITAAVHDLSATYFCAGYSGAGSYQLTFGKGTKLSVIP V domain 2: GAGVSQSPRYKVAKRGQDVALRCDPISGHVSLFWYQQALGQGPEFLTYFQNEAQLDKSGLPSDRFFAERPEGSVSTLKIQRTQQEDSAVYLCASSLLLGAYGYTFGSGTRLTVVE too.
Result: 22.7

Task: Please give the result for TCR 45 (codon optimized, cysteine modified version) (TCR, V domains shown) V domain 1: GQQVMQIPQYQHVQEGEDFTTYCNSSTTLSNIQWYKQRPGGHPVFLIQLVKSGEVKKQKRLTFQFGEAKKNSSLHITATQTTDVGTYFCAGSSGAGSYQLTFGKGTKLSVIP V domain 2: GAGVSQSPSNKVTEKGKDVELRCDPISGHTALYWYRQRLGQGLEFLIYFQGNSAPDKSGLPSDRFSAERTGESVSTLTIQRTQQEDSAVYLCASSLYLGTTGELFFGEGSRLTVLE too.
Result: 19.5

Task: Please give the result for TCR 51 (codon optimized, cysteine modified version) (TCR, V domains shown) V domain 1: QKEVEQNSGPLSVPEGAIASLNCTYSDRGSQSFFWYRQYSGKSPELIMSIYSNGDKEDGRFTAQLNKASQYVSLLIRDSQPSDSATYLCAVNMRGGGSNYKLTFGKGTLLTVNP V domain 2: EPEVTQTPSHQVTQMGQEVILRCVPISNHLYFYWYRQILGQKVEFLVSFYNNEISEKSEIFDDQFSVERPDGSNFTLKIRSTKLEDSAMYFCAIASRVSYEQYFGPGTRLTVTE too.
Result: 27.5

Task: Please give the result for TCR 48 (codon optimized, cysteine modified version) (TCR, V domains shown) V domain 1: QKEVEQDPGPLSVPEGAIVSLNCTYSNSAFQYFMWYRQYSRKGPELLMYTYSSGNKEDGRFTAQVDKSSKYISLFIRDSQPSDSATYLCAMRIQGAQKLVFGQGTRLTINP V domain 2: EPEVTQTPSHQVTQMGQEVILRCVPISNHLYFYWYRQILGQKVEFLVSFYNNEISEKSEIFDDQFSVERPDGSNFTLKIRSTKLEDSAMYFCASTGRVSYEQYFGPGTRLTVTE too.
Result: 37

Task: Please give the result for TCR 43 (codon optimized, cysteine modified version) (TCR, V domains shown) V domain 1: QKEVEQNSGPLSVPEGAIASLNCTYSDRGSQSFFWYRQYSGKSPELIMFIYSNGDKEDGRFTAQLNKASQYVSLLIRDSQPSDSATYLCAVNVPTSGTYKYIFGTGTRLKVLA V domain 2: EPEVTQTPSHQVTQMGQEVILRCVPISNHLYFYWYRQILGQKVEFLVSFYNNEISEKSEIFDDQFSVERPDGSNFTLKIRSTKLEDSAMYFCASTPRDSYEQYFGPGTRLTVTE too.
Result: 37.6

Task: Please give the result for TCR 34 (codon optimized, cysteine modified version) (TCR, V domains shown) V domain 1: ELKVEQNPLFLSMQEGKNYTIYCNYSTTSDRLYWYRQDPGKSLESLFVLLSNGAVKQEGRLMASLDTKARLSTLHITAAVHDLSATYFCAVSGTYKYIFGTGTRLKVLA V domain 2: ETGVTQSPTHLIKTRGQQVTLRCSSQSGHNTVSWYQQALGQGPQFIFQYYREEENGRGNFPPRFSGLQFPNYSSELNVNALELDDSALYLCASSSYAGSYEQYFGPGTRLTVTE too.
Result: 6.85

Task: Please give the result for TCR 50 (codon optimized, cysteine modified version) (TCR, V domains shown) V domain 1: GEDVEQSLFLSVREGDSSVINCTYTDSSSTYLYWYKQEPGAGLQLLTYIFSNMDMKQDQRLTVLLNKKDKHLSLRIADTQTGDSAIYFCAESPPGTYKYIFGTGTRLKVLA V domain 2: DSGVTQTPKHLITATGQRVTLRCSPRSGDLSVYWYQQSLDQGLQFLIHYYNGEERAKGNILERFSAQQFPDLHSELNLSSLELGDSALYFCASSATRDAYGYTFGSGTRLTVVE too.
Result: 30.7
